measurement target: T1, soluble cynomolgus monkey L1CAM, His-tagged, monomeric (cynomolgus monkey, UniProt A0A2K5URB5 20-1120)
T1 construct: also called cyL1CAM protein; cynomolgus L1CAM-His
assay text: BLI, soluble cynomolgus L1CAM-His
Measured Kd, listed per entry.
property name: Kd

[[record]]
binder = "13G04 (antibody, V domains shown, mAb from AlivaMab mice, purified from hybridoma supernatant) VH: QVQLVQSGAEVKKPGASVKVSCKASGYTFIGYYLHWVRQAPGQGLEWMGWINPNSGGTNSAQKFQGRVTMTRDTSISTTYMDLSRLRSDDTAVYYCARGGLERRDAFDIWGQGTLVTVSS VL: DIQMTQSPSTLSASVGDRVTITCRASQSISNWLAWYQQKPGKAPNLLIYKASSLESGVPSRFSGSGSGTEFTLTISSLQPDDFATYYCQQYDTYRTFGQGTKVEIK"
property_name = "Kd"
measured_value = "3.2 nM"

[[record]]
binder = "143G03 (antibody, V domains shown, mAb from wild-type mice; also called 143G03 WT; murine 143G03 mAb) VH: QVQLRQSGAELVRPGTSVKMSCKASGYTFTNYYIHWVKQRPGQGLEWIGKIGPGSGSPYYNGMFKDKATLTVDTSSSTAYMQLSSLTSEDSAVYFCARWLLPFDYWGQGTTLTVSS VL: QIVLSQSPGILSASPGEKVTMTCRASSSVNYMHWYQQKSGSSPKPWIFATSILASGVPPRFSGSGSGTSYSLTISSVEAEDTATYYCQQFSSDPLTFGAGTKLELK"
property_name = "Kd"
measured_value = "0.34 nM"

[[record]]
binder = "13F04 (antibody, V domains shown, mAb from wild-type mice, purified from the supernatant of a hybridoma clone; also called L1CAM mAb 13F04) VH: QVQLQQPGAELVKPGASVKLSCKASGYIFISYWMHWVKQRPGQGLEWIGEINPRNGRTNYNEKFKSKATLTVDKSSSTAYMQLTSLTSEDSAVYYCARGGDYGGSFDYWGQGTTLTVSS VL: DIVLTQSPASLAVSLGQRATISCRASESVDSYGNSFMHWYQQKPGQPPKLLIYRASNLESGIPARFSGSGSRTDFTLTVNPVEADDVATYYCQQSNEDPWTFGGGTKLEIK"
property_name = "Kd"
measured_value = "19.8 nM"

[[record]]
binder = "14A10 (antibody, V domains shown, mAb from AlivaMab mice) VH: EVQMVESGGGLVQPGGSLRLSCAAPGFIFSSYNMNWVRQAPGKGLEWVSYISSSSSTTYYADSVKGRFTISRDNAKNSLYLQMNSLRDEDTAVYYCASLYSGYDYYYYYGMDVWGQGTTVTVSS VL: DIVMTQTPLSSPVSLGQPASISCRSSQSLVHSDGNTYLSWLQQRPGQPPRVLIYKISKRFSGVPDRFSGSGAGTDFTLKISRVEAEDVGVYYCMQATQFPFTFGPGTKVDIK"
property_name = "Kd"
measured_value = "3.2 nM"


The measured values listed here are drawn from patent US20250340636A1.
